# methodNotes: Bioavailability study in rats (i.v. and p.o.)
# Format: in vivo
# conditionSet: male, SD, rat, plasma, iv, i.v. 0.3 mg/kg, 2 h
valueType: concentration at 2 h (ng/mL)
Use ng/mL as the unit, but write only the number.

query: So what does the record say about concentration at 2 h for CCN(Cc1ccccn1)C(=O)Cc1c(-c2ccc(Cl)c(Cl)c2)nc2cc(C)ccn12 ?
result: 4.3

====

# methodNotes: in vivo
# conditionSet: male, SD, rat, po, 1 mg/kg, Plasma concentration
valueType: concentration at 12 h
In your response, the unit should come after the numeric value.

query: So what does the record say about concentration at 12 h for CCN(Cc1ccccn1)C(=O)Cc1c(-c2ccc(Cl)c(Cl)c2)nc2cc(C)ccn12 ?
result: 1.96 ng/mL
